// reported normalised response for each item listed
system: DU-4475; test: normalised response (% of control), CellTox Green; higher = less cell death (100 = DMSO, 0 = benzethonium chloride kill control); settings: incubation time: 72 h
Write the answer as a number in %, unit excluded.

Reference set, count: 6
compound	normalised response (%)
CO[C@H]1C[C@@H]2CC[C@@H](C)[C@@](O)(O2)C(=O)C(=O)N2CCCC[C@H]2C(=O)O[C@H]([C@H](C)C[C@@H]2CC[C@@H](OC(=O)C(C)(CO)CO)[C@H](OC)C2)CC(=O)[C@H](C)/C=C(\C)[C@@H](O)[C@@H](OC)C(=O)[C@H](C)C[C@H](C)/C=C/C=C/C=C/1C [Temsirolimus] (10 nM)	95.5
COc1cccc2cc(-c3nc([C@H]4CC[C@H](C(=O)O)CC4)n4ncnc(N)c34)[nH]c12 [OSI-027] (100 nM)	98.5
CO[C@H]1C[C@@H]2CC[C@@H](C)[C@@](O)(O2)C(=O)C(=O)N2CCCC[C@H]2C(=O)O[C@H]([C@H](C)C[C@@H]2CC[C@@H](OC(=O)C(C)(CO)CO)[C@H](OC)C2)CC(=O)[C@H](C)/C=C(\C)[C@@H](O)[C@@H](OC)C(=O)[C@H](C)C[C@H](C)/C=C/C=C/C=C/1C [Temsirolimus] (1 nM)	97.5
COc1cccc2cc(-c3nc([C@H]4CC[C@H](C(=O)O)CC4)n4ncnc(N)c34)[nH]c12 [OSI-027] (1000 nM)	97.3
CN1CC[C@H](c2c(O)cc(O)c3c(=O)cc(-c4ccccc4Cl)oc23)[C@H](O)C1 [Alvocidib] (100 nM)	96.8
Nc1ccn([C@@H]2O[C@H](CO)[C@@H](O)[C@@H]2O)c(=O)n1 [Cytarabine] (1000 nM)	109

The recorded normalised response for N#CC[C@H](C1CCCC1)n1cc(-c2ncnc3[nH]ccc23)cn1 [Ruxolitinib] (1000 nM) is 95.8

Per the record, CS(=O)(=O)c1ccc(C(=O)Nc2ccc(Cl)c(-c3ccccn3)c2)c(Cl)c1 [Vismodegib] (10000 nM) has normalised response of 100

In plain terms, CN1CCC(COc2cnc(-c3cccc(Cn4nc(-c5cccc(C#N)c5)ccc4=O)c3)nc2)CC1 (10 nM) has a documented normalised response of 99.5

###

// normalised response lookup, one value per entry
system: MDA-MB-468; assay: normalised response (% of control), CellTiter-Glo; higher = more viable cells (100 = DMSO, 0 = benzethonium chloride kill control); details: incubation time: 72 h
Give the value, in units of %, as a plain number.

The following molecules have reported results that may help.
molecule	normalised response (%)
N#CC[C@H](C1CCCC1)n1cc(-c2ncnc3[nH]ccc23)cn1 [Ruxolitinib] (100 nM)	96.6
Clc1ccc(C(c2ccccc2Cl)C(Cl)Cl)cc1 (stereo not drawn) [Mitotane] (100 nM)	92.9
CN(C)C/C=C/C(=O)Nc1cc2c(Nc3ccc(F)c(Cl)c3)ncnc2cc1O[C@H]1CCOC1 [Afatinib] (10 nM)	98.1
O=C(c1ccc(C(=O)N2CCC(N3CCCC3)CC2)c(Nc2ccccc2)c1)N1CCC(N2CCCC2)CC1 [UNC1215] (300 nM)	90
Nc1ccn([C@@H]2O[C@H](CO)[C@@H](O)[C@@H]2O)c(=O)n1 [Cytarabine] (100 nM)	94.6

Reported normalised response of C=CC[C@@H]1/C=C(\C)C[C@H](C)C[C@H](OC)[C@H]2O[C@@](O)(C(=O)C(=O)N3CCCC[C@H]3C(=O)O[C@H](/C(C)=C/[C@@H]3CC[C@@H](O)[C@H](OC)C3)[C@H](C)[C@@H](O)CC1=O)[C@H](C)C[C@@H]2OC [Tacrolimus] (100 nM) : 93

Input Cc1c2oc3c(C)ccc(C(=O)N[C@@H]4C(=O)N[C@H](C(C)C)C(=O)N5CCC[C@H]5C(=O)N(C)CC(=O)N(C)[C@@H](C(C)C)C(=O)O[C@@H]4C)c3nc-2c(C(=O)N[C@@H]2C(=O)N[C@H](C(C)C)C(=O)N3CCC[C@H]3C(=O)N(C)CC(=O)N(C)[C@@H](C(C)C)C(=O)O[C@@H]2C)c(N)c1=O [Dactinomycin] (10 nM) . Output normalised response: 18.7

Per the record, C=CCNC1=C2C[C@@H](C)C[C@H](OC)[C@H](O)[C@@H](C)/C=C(\C)[C@H](OC(N)=O)[C@@H](OC)/C=C\C=C(/C)C(=O)NC(=CC1=O)C2=O [Tanespimycin] (100 nM) has normalised response of 97.3

Reference for the values: the supplement of paper PMC4862054
